Target: T1, human TREM2 expressed on cells (human, UniProt Q9NZC2 19-230)
T1 sequence: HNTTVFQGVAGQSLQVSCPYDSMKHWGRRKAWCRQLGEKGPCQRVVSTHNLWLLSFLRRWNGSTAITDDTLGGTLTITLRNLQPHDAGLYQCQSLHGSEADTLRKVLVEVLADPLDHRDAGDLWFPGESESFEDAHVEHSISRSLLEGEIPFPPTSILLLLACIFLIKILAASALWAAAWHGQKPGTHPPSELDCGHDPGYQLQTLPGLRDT
Experiment: cell-based or functional assay
Measurement Name: DC viability (AUC)
Could you kindly put the unit after your number?

1. AL2p-45 (antibody, V domains shown, Fab and IgG formats under one id) VH: QVQLVQSGAEVKKPGSSVKVSCKASGYAFSSDWMNWVRQAPGQGLEWMGRIYPGEGDTNYARKFQGRVTITADESTSTAYMELSSLRSEDTAVYYCARLLRNKPGESYAMDYWGQGTLVTVSS VL: DVVMTQTPLSLSVTPGQPASISCRTSQSLVHSNAYTYLHWYLQKPGQSPQLLIYKVSNRVSGVPDRFSGSGSGTDFTLKISRVEAEDVGVYYCSQSTRVPYTFGQGTKLEIK ... 543000 AUC

Q: Entry AL2p-52 (antibody, V domains shown, Fab and IgG formats under one id) VH: EVQLVQSGAEVKKPGSSVKVSCKASGYAFSSHWMNWVRQAPGQGLEWMGRIYPGEGDTNYAQKFHGRVTITADESTSTAYMELSSLRSEDTAVYYCARLLRNQPGESYAMDYWGQGTLVTVSS VL: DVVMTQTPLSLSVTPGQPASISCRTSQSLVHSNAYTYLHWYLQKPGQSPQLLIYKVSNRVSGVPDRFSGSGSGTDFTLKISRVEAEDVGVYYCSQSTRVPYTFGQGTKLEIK : reported DC viability (AUC) = ?
Ans: 283000 AUC

Q: Entry AL2p-40 (antibody, IgG1, V domains shown, Fab and IgG formats under one id) VH: QVQLVQSGAEVKKPGSSVKVSCKASGYAFSSHWMNWVRQAPGQGLEWMGRIYPGGGDTNYAQKFRGRVTITADESTSTAYMELSSLRSEDTAVYYCARLLRNQPGASYAMDYWGQGTLVTVSS VL: GVVMTQTPLSLSVTPGQPASISCRTSRSLVHSNRYTYLHWYLQKPGQSPQLLIYKVSNRRSGVPDRFSGSGSGTDFTLKISRVEAEDVGVYYCSQSTRVPYTFGQGTKLEIK : reported DC viability (AUC) = ?
Ans: 825000 AUC

Q: Entry AL2p-44 (antibody, IgG1, V domains shown, Fab and IgG formats under one id) VH: QVQLVQSGAEVKKPGSSVKVSCKASGYAFSSHWMNWVRQAPGQGLEWMGRIYPGGGDTNYARKFRGRVTITADESTSTAYMELSSLRSEDTAVYYCARLLRNQPGASYAMDYWGQGTLVTVSS VL: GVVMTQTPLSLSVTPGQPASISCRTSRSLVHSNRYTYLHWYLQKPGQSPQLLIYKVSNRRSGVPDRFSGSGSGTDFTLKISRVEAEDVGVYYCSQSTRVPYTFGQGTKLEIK : reported DC viability (AUC) = ?
Ans: 750000 AUC

Q: Entry AL2p-54 (antibody, V domains shown, Fab and IgG formats under one id) VH: QVQLVQSGAEVKKPGSSVKVSCKASGYAFSSHWMNWVRQAPGQGLEWMGRIYPGEGDTNYAQKFHGRVTITADESTSTAYMELSSLRSEDTAVYYCARLLRNKPGESYAMDYWGQGTLVTVSS VL: DVVMTQTPLSLSVTPGQPASISCRTSQSLVHSNQYTYLHWYLQKPGQSPQLLIYKVSNRVSGVPDRFSGSGSGTDFTLKISRVEAEDVGVYYCSQSTRVPYTFGQGTKLEIK : reported DC viability (AUC) = ?
Ans: 570000 AUC
